B1: library; numbered along this chain (parent)
chain: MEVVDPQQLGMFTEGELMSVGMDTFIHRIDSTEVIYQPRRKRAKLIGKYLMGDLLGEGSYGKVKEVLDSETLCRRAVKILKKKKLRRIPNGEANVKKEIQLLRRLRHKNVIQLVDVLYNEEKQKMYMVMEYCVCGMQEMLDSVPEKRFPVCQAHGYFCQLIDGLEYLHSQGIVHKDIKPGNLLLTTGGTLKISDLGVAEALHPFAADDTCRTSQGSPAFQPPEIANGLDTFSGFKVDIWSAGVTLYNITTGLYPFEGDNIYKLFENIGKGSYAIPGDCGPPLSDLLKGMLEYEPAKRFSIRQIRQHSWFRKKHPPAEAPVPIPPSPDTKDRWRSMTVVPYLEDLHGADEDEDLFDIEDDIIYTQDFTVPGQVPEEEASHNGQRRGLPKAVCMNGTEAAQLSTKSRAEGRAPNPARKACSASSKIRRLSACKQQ

- Variants of: B1
- protocol_description: STK11 functional score (HeLa growth suppression), rescaled enrichment; synonymous median = 1, nonsense median = 0 (normalised score)
- condition_notes: with HeLa; variant type: missense
result_type: STK11 functional score
Numbers only.

Hey, can you go through the list below and give me STK11 functional score for every item?
1. L183E
2. E376P
3. Q371L
4. A406T

output:
[0.3, 1.31, 1.44, 1.42]

Hey, can you go through the list below and give me STK11 functional score for every item?
1. P373M
2. A389Y
3. K178P
4. E165S

output:
1. 1.56
2. 1.15
3. -0.0986
4. 1.39

Hey, can you go through the list below and give me STK11 functional score for every item?
1. V173F
2. V133A

output:
0.953
1.41

Hey, can you go through the list below and give me STK11 functional score for every item?
1. G242M
2. R87K
3. K287A
4. R28W
5. D162F
6. Y246P

output:
1. -0.0974
2. 0.613
3. 0.932
4. 1.18
5. 1.15
6. -0.0491

Hey, can you go through the list below and give me STK11 functional score for every item?
1. I322N
2. C278W
3. H202D
4. L50P
5. M392G
6. L195V

output:
1. 1.59
2. 0.795
3. 0.804
4. 0.95
5. 1.43
6. 0.433
